SYSTEM_NAME: T1, UNK ZnF1-3 (human, UniProt Q9C0B0 31-174)
T1 sequence: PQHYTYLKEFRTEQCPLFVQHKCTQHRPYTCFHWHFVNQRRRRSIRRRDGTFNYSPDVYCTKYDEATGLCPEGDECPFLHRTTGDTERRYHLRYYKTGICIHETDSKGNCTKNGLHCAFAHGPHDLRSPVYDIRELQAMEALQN
ASSAY_REMARKS: nsRBNS (natural sequence RNA bind-n-seq); RBNS binding buffer (assumed for nsRBNS): 25 mM Tris pH 7.5, 150 mM KCl, 3 mM MgCl2, 0.01% Triton X-100, 500 ug/ml BSA, 20 U/ml SUPERase-In, 4 C; UNK is unkempt and MSI1 is Musashi-1; names of the RNAs are library labels; protein concentration not given here; high values mean tight binding
In all, about 24,000 sequences were measured (“enrichment r”: median about 0.99, highest 2% from about 3.7 on). The sample as a whole holds a higher share of the highest values than the screen did.
READOUT: binding signal (enrichment R)
Numbers only, in enrichment R.

BINDER	READOUT	UNIT_ABBREV	EXPERIMENTAL_RESULT
32462045_32462714_1507_3pUTR_ENSMUSG00000027668_ENSMUST00000091257|mouse|control|control (ssRNA) RNA: GGGAGUUCUACAGUCCGACGAUCACUCUUAUACACUUUCAGUACACUGGGGGUAGGAUGAAACUCAGAACAAAACUCAUCAACCAAAACAGAUAGUCGACAAAUUUCAUCUGUCAUUGCACAAGAAACCUUGUUUGCCACCUCCAACAGAGGAUUGAGCAUCA	binding signal	enrichment R	1.52

Please find the next binder below.
Tell us which binding signal value is on record for 37444673_37445709_2339_CDS_ENSMUSG00000026113_ENSMUST00000027287|mouse|control|control (ssRNA) RNA: GGGAGUUCUACAGUCCGACGAUCGUAGAGCUGCCGCAGGAAGCCACCGUCGUGCAGGCAGUUCCUCAGCUUGAUGAUAAAGCCACAGAUGAGGGCUGUCAGGGUUUGGCAGAAGACGACGUCACGGCGAUACUGCAGGCUGAGCAACAGAGGAUUGAGCAUCA
1.01
